target: RORγ ligand binding domain (LBD) (Homo sapiens); construct: made in house; host or cells: E. coli BL-21 (BL3), vector pDEST15; assay: TR-FRET Activity Assay (ligand sensing, RORγ-LBD / coactivator peptide interaction, LANCE); format: biochemical; settings: first value of the cell FRET/FF/REN; TR-FRET activity assay; read-out: pIC50 (FRET) (converted)
Sequence (P51449 269-508 limits assumed): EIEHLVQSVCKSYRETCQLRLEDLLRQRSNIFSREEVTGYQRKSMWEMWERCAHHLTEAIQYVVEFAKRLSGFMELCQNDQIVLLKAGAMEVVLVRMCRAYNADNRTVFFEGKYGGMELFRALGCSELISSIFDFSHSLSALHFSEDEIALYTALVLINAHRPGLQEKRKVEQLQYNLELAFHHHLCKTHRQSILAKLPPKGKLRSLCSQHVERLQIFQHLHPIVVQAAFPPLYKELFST
metric: IC50 (nM)
Report only the number, with the unit nM understood.

>>> print(df.to_string())
                           molecular_string                     target_or_test_system  metric  recorded_number
0  Cc1c(C(=O)NCC(C)(C)NS(=O)(=O)C2CC2)cc(-c2cc(C(C)(C)C)c3c(c2)C2(CCO3)CC2)n1CC1CCCCC1  RORγ ligand binding domain (LBD) (Homo sapiens)    IC50              631
1  Cc1c(C(=O)N[C@H]2C[C@H](C(=O)O)C2)cc(-c2cc(C(C)(C)O)cc(C(F)(F)F)c2)n1CC1CCCCC1  RORγ ligand binding domain (LBD) (Homo sapiens)    IC50             3160
2  Cc1c(C(=O)NC2CCOCC2)cc(-c2cc(F)c(S(=O)(=O)NC(C)(C)C)c(C(F)(F)F)c2)n1CC1CCCCC1  RORγ ligand binding domain (LBD) (Homo sapiens)    IC50              631
3  Cc1c(C(=O)NCCc2noc(=O)[nH]2)cc(-c2ccc(S(=O)(=O)NC(C)(C)C)c(C(C)(C)C)c2)n1CC1CCCCC1  RORγ ligand binding domain (LBD) (Homo sapiens)    IC50             1260
4  Cc1c(C(=O)NC2COC2)cc(-c2cc(C(C)(C)C)c3c(c2)C2(CCO3)CC2)n1CC1CCCCC1  RORγ ligand binding domain (LBD) (Homo sapiens)    IC50              251
5  Cc1c(C(=O)NCCCCCC(=O)O)cc(-c2cc(C(C)(C)C)cc(C(C)(C)C)c2)n1CC1CCCCC1  RORγ ligand binding domain (LBD) (Homo sapiens)    IC50             1000
6  Cc1noc2ccc(-c3cc(C(N)=O)c(C)n3CC3CCCCC3)cc12  RORγ ligand binding domain (LBD) (Homo sapiens)    IC50            31600
7  Cc1c(C(=O)NC2COC2)cc(-c2cc(C(C)(C)C)cc(C3(C)CC3)c2)n1CC1CCCCC1  RORγ ligand binding domain (LBD) (Homo sapiens)    IC50              200

Input line: Return reported IC50. Input compound: CCC(C)(C)NS(=O)(=O)c1ccc(-c2cc(C(=O)N[C@H]3C[C@H](C(=O)O)C3)c(C)n2CC2CCCCC2)c(Cl)c1C
Output line: 794

Input line: Return reported IC50. Input compound: Cc1c(C(=O)NCC(C)(C)C(=O)O)cc(-c2cc(C(C)(C)C)cc(C3(C)CC3)c2)n1CC1CCCCC1
Output line: 1580

Input line: Return reported IC50. Input compound: Cc1c(C(=O)NCC(C)(C)C(N)=O)cc(-c2ccc(S(=O)(=O)NC(C)(C)C)c(C(C)(C)C)c2)n1CC1CCCCC1
Output line: 794

Data provenance is patent US9815851B2.
